tested on: 233499-124-R-J3-PDC spheroids with HUVEC/MSC, viability; test: Anticancer human tumor 233499-124-R-J3-PDC patient-derived colon adenocarcinoma cell line growth inhibition [PI3K]; settings: second compound 0.0316 µM; first compound 3.16 µM; stronger effect = lower value
Exercise: for every item that follows, state its recorded viability, T/C.
# number only, unit % dropped from output

Enquiry: I'd like to know its viability, T/C. The compound in question is CNC(=O)c1ccc(N2C(=S)N(c3ccc(C#N)c(C(F)(F)F)c3)C(=O)C2(C)C)cc1F + COc1c(OCCCN2CCOCC2)ccc2c3n(c(=NC(=O)c4cnc(N)nc4)nc12)CCN3
Return: 63.8

Enquiry: I'd like to know its viability, T/C. The compound in question is CC(Cn1ccc(-c2ccc(C#N)c(Cl)c2)n1)NC(=O)c1cc(C(C)O)[nH]n1 (stereo unspecified) + CC(Nc1ccc2c(c1)OCCn1cc(N3C(=O)OCC3C(F)F)nc1-2)C(N)=O
Return: 101

Enquiry: I'd like to know its viability, T/C. The compound in question is Cn1ncc(Cl)c1-c1cc(C(=O)NC(CN)Cc2cccc(F)c2)sc1Cl (stereo unspecified) + CC(Nc1ccc2c(c1)OCCn1cc(N3C(=O)OCC3C(F)F)nc1-2)C(N)=O
Return: 43.8

Enquiry: I'd like to know its viability, T/C. The compound in question is CC(Cn1ccc(-c2ccc(C#N)c(Cl)c2)n1)NC(=O)c1cc(C(C)O)[nH]n1 (stereo unspecified) + CC(Nc1ncnc2nc[nH]c12)c1cc2cccc(Cl)c2c(=O)n1-c1ccccc1
Return: 109

Enquiry: I'd like to know its viability, T/C. The compound in question is C[C@@H](NC(=O)c1ncnc(N)c1Cl)c1ncc(C(=O)Nc2cc(C(F)(F)F)c(Cl)cn2)s1 + CC(Nc1ccc2c(c1)OCCn1cc(N3C(=O)OCC3C(F)F)nc1-2)C(N)=O
Return: 113

Enquiry: I'd like to know its viability, T/C. The compound in question is C[C@@H](NC(=O)c1ncnc(N)c1Cl)c1ncc(C(=O)Nc2cc(C(F)(F)F)c(Cl)cn2)s1 + CC(Nc1ncnc2nc[nH]c12)c1cc2cccc(Cl)c2c(=O)n1-c1ccccc1
Return: 105

Enquiry: I'd like to know its viability, T/C. The compound in question is CC1(C)CCC(Nc2ncc(C(F)(F)F)c(-c3c[nH]c4c(P(C)(C)=O)c(C#N)ccc34)n2)CN1 (stereo unspecified) + Cc1nc(NC(=O)N2CCCC2C(N)=O)sc1-c1ccnc(C(C)(C)C(F)(F)F)c1
Return: 25.1

Enquiry: I'd like to know its viability, T/C. The compound in question is CCCS(=O)(=O)Nc1ccc(F)c(C(=O)c2c[nH]c3ncc(-c4ccc(Cl)cc4)cc23)c1F + CC(Nc1ccc2c(c1)OCCn1cc(N3C(=O)OCC3C(F)F)nc1-2)C(N)=O
Return: 75.8

Enquiry: I'd like to know its viability, T/C. The compound in question is CC(C)NCC(C(=O)N1CCN(c2ncnc3c2C(C)CC3O)CC1)c1ccc(Cl)cc1 (stereo unspecified) + CC(Nc1ccc2c(c1)OCCn1cc(N3C(=O)OCC3C(F)F)nc1-2)C(N)=O
Return: 81.2

Enquiry: I'd like to know its viability, T/C. The compound in question is CC1(C)CCC(Nc2ncc(C(F)(F)F)c(-c3c[nH]c4c(P(C)(C)=O)c(C#N)ccc34)n2)CN1 (stereo unspecified) + CC(Nc1ncnc2nc[nH]c12)c1cc2cccc(Cl)c2c(=O)n1-c1ccccc1
Return: 25.2

Enquiry: I'd like to know its viability, T/C. The compound in question is C#Cc1c(F)ccc2cc(O)cc(-c3ncc4c(N5CC6CCC(C5)N6)nc(OCC56CCCN5CC(F)C6)nc4c3F)c12 (stereo unspecified) + CC(Nc1ncnc2nc[nH]c12)c1cc2cccc(Cl)c2c(=O)n1-c1ccccc1
Return: 85.2

* * *

tested on: 233499-124-R-J3-PDC spheroids with HUVEC/MSC, viability; test: Anticancer human tumor 233499-124-R-J3-PDC cell line growth inhibition [PI3K]; settings: second compound 10 µM; first compound 0.00316 µM; stronger effect = lower value;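 further: spheroids exposed to agents for seven days before readout; percent viability relative to DMSO vehicle control taken as 100%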
Exercise: for every item that follows, state its recorded viability, T/C.
# number only, unit % dropped from output

Enquiry: I'd like to know its viability, T/C. The compound in question is CC(C)n1nc(-c2ccc3oc(N)nc3c2)c2c(N)ncnc21 + CC(Nc1ncnc2nc[nH]c12)c1cc2cccc(Cl)c2c(=O)n1-c1ccccc1
Return: 88.3

Enquiry: I'd like to know its viability, T/C. The compound in question is CC(=O)c1c(C)c2cnc(Nc3ccc(N4CCNCC4)cn3)nc2n(C2CCCC2)c1=O + CC(Nc1ncnc2nc[nH]c12)c1cc2cccc(Cl)c2c(=O)n1-c1ccccc1
Return: 92.9

Enquiry: I'd like to know its viability, T/C. The compound in question is Cn1ncnc1[C@H]1c2n[nH]c(=O)c3cc(F)cc(c23)N[C@@H]1c1ccc(F)cc1 + Cc1nc(NC(=O)N2CCCC2C(N)=O)sc1-c1ccnc(C(C)(C)C(F)(F)F)c1
Return: 37.6

Enquiry: I'd like to know its viability, T/C. The compound in question is CC(=O)c1c(C)c2cnc(Nc3ccc(N4CCNCC4)cn3)nc2n(C2CCCC2)c1=O + Cc1nc(NC(=O)N2CCCC2C(N)=O)sc1-c1ccnc(C(C)(C)C(F)(F)F)c1
Return: 27.5

Enquiry: I'd like to know its viability, T/C. The compound in question is Cn1ncnc1[C@H]1c2n[nH]c(=O)c3cc(F)cc(c23)N[C@@H]1c1ccc(F)cc1 + CC(Nc1ncnc2nc[nH]c12)c1cc2cccc(Cl)c2c(=O)n1-c1ccccc1
Return: 85.2

Enquiry: I'd like to know its viability, T/C. The compound in question is CC(C)n1nc(-c2ccc3oc(N)nc3c2)c2c(N)ncnc21 + Cc1nc(NC(=O)N2CCCC2C(N)=O)sc1-c1ccnc(C(C)(C)C(F)(F)F)c1
Return: 29.7

Enquiry: I'd like to know its viability, T/C. The compound in question is CCN1CCN(Cc2ccc(Nc3ncc(F)c(-c4cc(F)c5nc(C)n(C(C)C)c5c4)n3)nc2)CC1 + CC(Nc1ncnc2nc[nH]c12)c1cc2cccc(Cl)c2c(=O)n1-c1ccccc1
Return: 75.9

Enquiry: I'd like to know its viability, T/C. The compound in question is CCN1CCN(Cc2ccc(Nc3ncc(F)c(-c4cc(F)c5nc(C)n(C(C)C)c5c4)n3)nc2)CC1 + Cc1nc(NC(=O)N2CCCC2C(N)=O)sc1-c1ccnc(C(C)(C)C(F)(F)F)c1
Return: 28.1

* * *

tested on: 233499-124-R-J3-PDC spheroids with HUVEC/MSC, viability; assay: Anticancer human tumor 233499-124-R-J3-PDC cell line growth inhibition [PI3K]; details: second compound 3.16 µM; first compound 1 µM; stronger effect = lower value;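 further: spheroids exposed to agents for seven days before readout; percent viability relative to DMSO vehicle control taken as 100%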
Parameter Measured: viability, T/C (%)
# number only, unit % dropped from output

Enquiry: Recall the recorded viability, T/C for CC1(C)CCC(Nc2ncc(C(F)(F)F)c(-c3c[nH]c4c(P(C)(C)=O)c(C#N)ccc34)n2)CN1 (stereo not given) + Cc1nc(NC(=O)N2CCCC2C(N)=O)sc1-c1ccnc(C(C)(C)C(F)(F)F)c1 with 233499-124-R-J3-PDC spheroids with HUVEC/MSC, viability and state it.
Return: 18.4

Enquiry: Recall the recorded viability, T/C for CCN1CCN(Cc2ccc(Nc3ncc(F)c(-c4cc(F)c5nc(C)n(C(C)C)c5c4)n3)nc2)CC1 + CC(Nc1ncnc2nc[nH]c12)c1cc2cccc(Cl)c2c(=O)n1-c1ccccc1 with 233499-124-R-J3-PDC spheroids with HUVEC/MSC, viability and state it.
Return: 32.8

Enquiry: Recall the recorded viability, T/C for C=CC(=O)N1CCN(c2nc(=O)n(-c3c(C)ccnc3C(C)C)c3nc(-c4c(O)cccc4F)c(F)cc23)C(C)C1 (stereo not given) + CC(Nc1ncnc2nc[nH]c12)c1cc2cccc(Cl)c2c(=O)n1-c1ccccc1 with 233499-124-R-J3-PDC spheroids with HUVEC/MSC, viability and state it.
Return: 79.7

Enquiry: Recall the recorded viability, T/C for CC1(C)CCC(CN2CCN(c3ccc(C(=O)NS(=O)(=O)c4ccc(NCC5CCOCC5)c([N+](=O)[O-])c4)c(Oc4cnc5[nH]ccc5c4)c3)CC2)=C(c2ccc(Cl)cc2)C1 + CC(Nc1ncnc2nc[nH]c12)c1cc2cccc(Cl)c2c(=O)n1-c1ccccc1 with 233499-124-R-J3-PDC spheroids with HUVEC/MSC, viability and state it.
Return: 97.1

Enquiry: Recall the recorded viability, T/C for Cn1nccc1Nc1nccc(-c2ccn(C(CO)c3ccc(Cl)c(F)c3)c(=O)c2)n1 (stereo not given) + CC(Nc1ncnc2nc[nH]c12)c1cc2cccc(Cl)c2c(=O)n1-c1ccccc1 with 233499-124-R-J3-PDC spheroids with HUVEC/MSC, viability and state it.
Return: 89.8
